Exercise: state measured aorta:blood for each of the molecules provided.
Tested on: aorta of apolipoprotein E (ApoE) knockout mouse
ASSAY EXPLANATION: In-vivo ApoE mouse aorta uptake studies
MEASUREMENT PARAMETERS: ApoE knockout mice on high-fat diet, 0.3-0.4 mCi/kg bolus via tail vein, 60 min; ratio
Give bare numbers.

Known results for molecules:
MOLECULE	ASSAY SYSTEM	OBSERVED VALUE
CONC(=O)[C@@H](CCc1ccccc1)NCc1ccc(CNC(=O)CN2CCN(CC(=O)[O-])CCN(CC(=O)[O-])CCN(CC(=O)[O-])CC2)cc1.[153Gd+3]	aorta of apolipoprotein E (ApoE) knockout mouse	2.0
NC(Cc1ccc(CNC(=O)CN2CCN(CC(=O)[O-])CCN(CC(=O)[O-])CCN(CC(=O)[O-])CC2)cc1)C(=O)NOCc1ccccc1.[153Gd+3] (stereo not shown)	aorta of apolipoprotein E (ApoE) knockout mouse	1.0
CONC(=O)C(N)Cc1ccc(CNC(=O)CN2CCN(CC(=O)[O-])CCN(CC(=O)[O-])CCN(CC(=O)[O-])CC2)cc1.[153Gd+3] (stereo not shown)	aorta of apolipoprotein E (ApoE) knockout mouse	1.2

// next entry
Indicate its recorded aorta:blood; the molecule in question is O=C([O-])CN1CCN(CC(=O)[O-])CCN(CC(=O)NCc2ccc(CN[C@H](CCc3ccccc3)C(=O)NOCc3ccccc3)cc2)CCN(CC(=O)[O-])CC1.[153Gd+3]
0.8

---

Tested on: aorta of apolipoprotein E (ApoE) knockout mouse
ASSAY EXPLANATION: In-vivo ApoE mouse aorta uptake studies
MEASUREMENT PARAMETERS: ApoE knockout mice on high-fat diet, 0.3-0.4 mCi/kg bolus via tail vein, 60 min; ratio
METRIC: aorta:heart
Answers are plain numbers.

Solved cases (3 shown):
MOLECULE	METRIC	OBSERVED VALUE
O=C([O-])CN1CCN(CC(=O)[O-])CCN(CC(=O)NCc2ccc(CN[C@H](CCc3ccccc3)C(=O)NOCc3ccccc3)cc2)CCN(CC(=O)[O-])CC1.[153Gd+3]	aorta:heart	4.2
CONC(=O)[C@@H](CCc1ccccc1)NCc1ccc(CNC(=O)CN2CCN(CC(=O)[O-])CCN(CC(=O)[O-])CCN(CC(=O)[O-])CC2)cc1.[153Gd+3]	aorta:heart	9.2
NC(Cc1ccc(CNC(=O)CN2CCN(CC(=O)[O-])CCN(CC(=O)[O-])CCN(CC(=O)[O-])CC2)cc1)C(=O)NOCc1ccccc1.[153Gd+3] (stereo not shown)	aorta:heart	8.8

Return aorta:heart for the following molecule: CONC(=O)C(N)Cc1ccc(CNC(=O)CN2CCN(CC(=O)[O-])CCN(CC(=O)[O-])CCN(CC(=O)[O-])CC2)cc1.[153Gd+3] (stereo not shown)
5.3

---

System: aorta of apolipoprotein E (ApoE) knockout mouse
ASSAY EXPLANATION: In-vivo ApoE mouse aorta uptake studies
MEASUREMENT PARAMETERS: ApoE knockout mice on high-fat diet, 0.3-0.4 mCi/kg bolus via tail vein, tissue harvested at 60 min
METRIC: aorta uptake (% ID/g)
Give bare numbers, in % ID/g.

I'm hoping you can list aorta uptake (% ID/g) for every molecule here, please.
1. NC(Cc1ccc(CNC(=O)CN2CCN(CC(=O)[O-])CCN(CC(=O)[O-])CCN(CC(=O)[O-])CC2)cc1)C(=O)NOCc1ccccc1.[153Gd+3] (stereo not shown) [Example 55]
2. CONC(=O)[C@@H](CCc1ccccc1)NCc1ccc(CNC(=O)CN2CCN(CC(=O)[O-])CCN(CC(=O)[O-])CCN(CC(=O)[O-])CC2)cc1.[153Gd+3] [Example 52]

3.0
6.1

Here are 2 molecules. What values of aorta uptake (% ID/g) were reported for them?
1. O=C([O-])CN1CCN(CC(=O)[O-])CCN(CC(=O)NCc2ccc(CN[C@H](CCc3ccccc3)C(=O)NOCc3ccccc3)cc2)CCN(CC(=O)[O-])CC1.[153Gd+3] [Example 53]
2. CONC(=O)C(N)Cc1ccc(CNC(=O)CN2CCN(CC(=O)[O-])CCN(CC(=O)[O-])CCN(CC(=O)[O-])CC2)cc1.[153Gd+3] (stereo not shown) [Example 54]

[1.5, 2.5]
